Let's look at some compounds and their measured inhibition.
target: Leukotriene B4 receptor 1 (Homo sapiens); assay: Inhibition of binding of [3H]LTB4 to the leukotriene B4 receptor of human peripheral neutrophils (PMN) at a concentration of 10 uM.
TEST READOUT: inhibition (%)

>>> print(df.to_string())
                                    compound  unit_tag  numeric_result
 0  CCc1cc(C(C)=O)c(O)cc1OCCCCCC[S+](C)[O-] (stereo unspecified)         %              92
 1       C=CCc1cc(C(C)=O)c(O)cc1OCCCCCC(C)=O         %              98
 2          C=CCc1cc(C(C)=O)c(O)cc1OCCCCCC#N         %              81
 3                   C=CCc1ccc(O)cc1OCCCCC#N         %              29
 4        CCc1cc(C(C)=O)c(O)cc1OCCCCCCC(=O)O         %              87
 5              C=CCc1cc(C(C)=O)c(O)cc1OCC#N         %              20
 6          CSCc1cc(C(C)=O)c(O)cc1OCCCCCCC#N         %              97
 7       C=CCc1cc(C(C)=O)c(O)cc1OCCCCCC(N)=O         %              88
 8  CCc1cc(C(C)=O)c(O)cc1OCCCCCC(C)(C)c1nn[nH]n1         %             102
 9          CCCCCc1cc(C(C)=O)c(O)cc1OCCCCC#N         %              31
10   C=CCc1cc(C(C)=O)c(O)cc1OCc1cccc(CC#N)c1         %              16
11            CCc1cc(C(C)=O)c(O)cc1OCCCCCCSC         %              71
12     C=CCc1cc(C(C)=O)c(O)cc1OCCCCCC(C)(C)O         %              98
13  CCc1cc(C(C)=O)c(O)cc1OCCCCCCC(=O)Nc1nn[nH]n1         %             101
14           CCCc1cc(C(C)=O)c(Cl)cc1OCCCCC#N         %              35
15             C=CCc1cc(C(C)=O)c(O)cc1OCCCCO         %              48
16   C=CCc1cc(C(=O)CCCCCCCCC)c(O)cc1OCCCCC#N         %              10
17         CCCc1cc(C(C)=O)c(O)cc1OCCCCC(=O)O         %              11
18            CCCc1c(OCCCCC#N)ccc(C(C)=O)c1O         %               0
19    CCc1cc(C(C)=O)c(O)cc1OCCCC(C)(C)C(N)=O         %              92
20       CCCc1cc(C(C)=O)c(O)c(CCC)c1OCCCCC#N         %               0
21    CCc1cc(C(C)=O)c(O)cc1OCCCCCCS(C)(=O)=O         %              99
22           CCCCc1cc(C(C)=O)c(O)cc1OCCCCC#N         %              41
23       CCc1cc(C(C)=O)c(O)cc1Oc1cccc(C#N)c1         %              11
24             CCc1cc(C(C)=O)c(O)cc1OCCCCC#N         %              92
25        CCc1cc(C(C)=O)c(O)cc1OCCCCN1CCOCC1         %              32
